Tested on: PC15
Assay: qHTS profiling for inhibitors of Plasmodium falciparum proliferation (AID 504749); further: nearly all actives have a fitted effect of over 60% in size
Details: P. falciparum in erythrocytes, SYBR Green DNA, 72 h; series mostly up to 28.7 µM
Inconclusive results are not listed. Activity calls are given as the source filed them. The call rests on the fitted dose curve; in most records, active means well fitted inhibition curve with a large enough effect; inconclusive means small, poorly fitted or top-dose-only effect; inactive means flat fitted curve, though single readings scatter.
Valid outcomes are listed here; reply with one: active, inactive

For orientation, consider the following solved cases.
C[C@]12CCC(=O)C=C1[C@@H]1C[C@H]1[C@H]1[C@@H]3[C@@H]4C[C@H]4[C@@]4(CCC(=O)O4)[C@@]3(C)CC[C@@H]12	inactive
O=C(O)c1ccc(N[C@@H]2OC[C@@H](O)[C@@H](O)[C@@H]2O)cc1	inactive
CCCSS/C(CCO)=C(/C)N(C=O)Cc1cnc(C)nc1N	inactive
CC[C@@H](C)C(N)C(=O)O (stereo not given in full)	inactive
CNC1CCc2cc(OC)c(OC)c(OC)c2-c2ccc(OC)c(=O)cc21 (stereo not given)	inactive
CNC1C(O)C(OC2C(NC(=O)C(O)CN)CC(N)C(OC3OC(CN)C(O)C(O)C3O)C2O)OCC1(C)O (stereo not given)	inactive
Nc1nc(Cl)nc2c1ncn2[C@@H]1O[C@H](CO)[C@H](O)C1F (stereo not given in full)	inactive
CC(=O)NC1[C@H](O)C[C@@](O)(C(=O)O)O[C@H]1[C@H](O)[C@H](O)CO (stereo not given in full)	inactive

Task item: Tell me the recorded outcome of this test for `C[S+](C)CC[C@H](N)C(=O)O` .
Reply: inactive

Task item: Tell me the recorded outcome of this test for OCC1O[C@@H](O[C@@H]2C(CO)OC(O)C(O)C2O)C(O)C(O)C1O (stereo not given in full) .
Reply: inactive

----------
Tested on: PC15
Assay: qHTS profiling for inhibitors of Plasmodium falciparum proliferation (AID 504749); further: nearly all actives have a fitted effect of over 60% in size
Details: P. falciparum in erythrocytes, SYBR Green DNA, 72 h; series mostly up to 28.7 µM
Results filed as inconclusive are left out. Active and inactive are the calls of the source. Calls follow the shape of the dose curve; as a rule, active = well fitted inhibition curve with a large enough effect; inconclusive = small, poorly fitted or top-dose-only effect; inactive = flat fitted curve, though single readings scatter.
Valid outcomes are listed here; reply with one: active, inactive

Task item: Tell me the recorded outcome of this test for `O=C1[C@@H]2C[C@@H]3C[C@H]1C[C@@](O)(C3)C2` .
Reply: inactive

Task item: Tell me the recorded outcome of this test for CNC(=O)C(N)CSC(C)C1=C(C)c2cc3[n-]c(cc4nc(cc5[n-]c(cc1n2)c(C)c5CCC(=O)O)C(CCC(=O)O)=C4C)c(C)c3C(C)SCC(N)C(=O)NC.[Fe+2] (stereo not given) .
Reply: inactive

Task item: Tell me the recorded outcome of this test for OCCN1CC(O)C(O)C(O)C1CO (stereo not given) .
Reply: inactive

Task item: Tell me the recorded outcome of this test for CC1(Cn2ccnn2)[C@H](C(=O)O)N2C(=O)C[C@H]2S1(=O)=O (stereo not given in full) .
Reply: inactive

Task item: Tell me the recorded outcome of this test for `Cc1cncc(C(=O)O)[n+]1[O-]` .
Reply: inactive

Task item: Tell me the recorded outcome of this test for O=C1NC(=O)C2C3C=CC(C3)C12 (stereo not given) .
Reply: inactive

Task item: Tell me the recorded outcome of this test for CC1(C)SC2[C@@H](N=CN3CCCCCC3)C(=O)N2[C@H]1C(=O)O (stereo not given in full) .
Reply: inactive

Task item: Tell me the recorded outcome of this test for `Cn1cc(C(=O)[C@@H]2CCc3[nH]cnc3C2)c2ccccc21` .
Reply: inactive

Task item: Tell me the recorded outcome of this test for NCCCCC(N)C(=O)O (stereo not given) .
Reply: inactive

Task item: Tell me the recorded outcome of this test for Cc1onc(-c2c(F)cccc2Cl)c1C(=O)NC1C(=O)N2C1SC(C)(C)C2C(=O)O (stereo not given) .
Reply: inactive

Task item: Tell me the recorded outcome of this test for Cc1c(C)c2c(c(C)c1O)CCC(C)(CCCC(C)CCCC(C)CCCC(C)C)O2 (stereo not given) .
Reply: inactive

Task item: Tell me the recorded outcome of this test for C=C[C@H]1CN2CCC1C[C@H]2[C@H](O)c1ccnc2ccc(OC)cc12 (stereo not given in full) .
Reply: active

Task item: Tell me the recorded outcome of this test for CCCCCOC(=O)Nc1nc(=O)n(C2O[C@H](C)[C@@H](O)[C@@H]2O)cc1F (stereo not given in full) .
Reply: inactive

Task item: Tell me the recorded outcome of this test for `C=C1N[C@]2(C(=O)COC(C)=O)[C@@H](C[C@H]3[C@@H]4CCC5=CC(=O)C=C[C@]5(C)[C@H]4[C@@H](O)C[C@@]32C)O1` .
Reply: inactive

Task item: Tell me the recorded outcome of this test for CC(=O)OC1C([N+]2(C)CCCCC2)C[C@H]2C3CC[C@H]4C[C@H](OC(C)=O)C([N+]5(C)CCCCC5)CC4(C)C3CCC12C (stereo not given in full) .
Reply: inactive

Task item: Tell me the recorded outcome of this test for `O=C1CC[C@H](C(=O)N[C@@H]2C[C@H]2c2ccccc2)N1` .
Reply: inactive

Task item: Tell me the recorded outcome of this test for CCC(=O)O[C@]1(C(=O)CCl)[C@@H](C)CC2C3C[C@H](F)C4=CC(=O)C=CC4(C)[C@@]3(F)C(O)CC21C (stereo not given in full) .
Reply: active

Task item: Tell me the recorded outcome of this test for CO/N=C(/C(=O)N[C@@H]1C(=O)N2C(C(=O)O)=C(CSC(=O)c3ccco3)CSC12)c1csc(N)n1 (stereo not given in full) .
Reply: inactive

Task item: Tell me the recorded outcome of this test for CO[C@H]1OC2O[C@@]3(C)CC[C@H]4[C@H](C)CC[C@@H]([C@H]1C)[C@@]24OO3 (stereo not given in full) .
Reply: active

Task item: Tell me the recorded outcome of this test for CC1C(=O)C(=O)C=CN1C (stereo not given) .
Reply: inactive

----------
Tested on: HB3
Experiment: qHTS profiling for inhibitors of Plasmodium falciparum proliferation (AID 504749); further: nearly all actives have a fitted effect of over 60% in size
Conditions: P. falciparum in erythrocytes, SYBR Green DNA, 72 h; series mostly up to 28.7 µM
Inconclusive results are not listed. Calls of active or inactive are those of the source. The call rests on the fitted dose curve; in most records, active means well fitted inhibition curve with a large enough effect; inconclusive means small, poorly fitted or top-dose-only effect; inactive means flat fitted curve, though single readings scatter.
Valid outcomes are listed here; reply with one: true (1) = active, false (0) = inactive

For orientation, consider the following solved cases.
NCCCCC(N)C(=O)O (stereo not given)	false (0)
C=C(CC[C@@H](C)[C@H]1CCC2[C@]1(C)CC[C@]13C[C@@]14CCC(OC(=O)/C=C/c1ccc(O)c(OC)c1)C(C)(C)[C@@H]4CC[C@@]23C)C(C)C (stereo not given in full)	false (0)
NC(CSSCC(N)C(=O)O)C(=O)O (stereo not given)	false (0)
C=C[C@H]1CN2CCC1C[C@H]2[C@H](O)c1ccnc2ccc(OC)cc12 (stereo not given in full)	true (1)
NC(C(=O)O)c1ccc(O)cc1 (stereo not given)	false (0)
OCC1O[C@H](Oc2ccc(O)cc2)C(O)C(O)C1O (stereo not given in full)	false (0)
CC1(C)OC[C@@H]2O[C@@]3(C(=O)O)OC(C)(C)O[C@@H]3[C@@H]2O1	false (0)
CO/N=C(/C(=O)N[C@@H]1C(=O)N2C(C(=O)O)=C(CSc3cnns3)CS[C@H]12)c1csc(N)n1	false (0)
O=C(O)CC(O)CC(O)/C=C/c1c(C2CC2)nc2ccccc2c1-c1ccc(F)cc1 (stereo not given)	false (0)

Task item: Tell me the recorded outcome of this test for CCC(C(=O)C(C)C(O)C(C)CCc1ccc(C)c(O)c1C(=O)O)C1OC(CC)(C2CC[C@@](O)(CC)C(C)O2)CC1C (stereo not given in full) .
Reply: true (1)

----------
Test system: PAD
Experiment: qHTS profiling for inhibitors of Plasmodium falciparum proliferation (AID 504749); further: nearly all actives have a fitted effect of over 60% in size
Settings: P. falciparum in erythrocytes, SYBR Green DNA, 72 h; series mostly up to 28.7 µM
Records with an inconclusive call do not appear. Activity calls are given as the source filed them. Calls follow the shape of the dose curve; as a rule, active = well fitted inhibition curve with a large enough effect; inconclusive = small, poorly fitted or top-dose-only effect; inactive = flat fitted curve, though single readings scatter.
Valid outcomes are listed here; reply with one: class 1 (active), class 0 (inactive)

For orientation, consider the following solved cases.
O=c1ccn(C2OC(COP(=O)(O)OC3C(CO)OC(n4ccc(=O)[nH]c4=O)C3O)C(O)C2O)c(=O)[nH]1 (stereo not drawn)	class 0
Nc1ncn(C2C[C@H](O)[C@@H](CO)O2)c(=O)n1 (stereo partly drawn)	class 0
CC[C@H](C)[C@H]1O[C@]2(CC[C@@H]1C)C[C@@H]1C[C@@H](C/C=C(\C)[C@H](O[C@@H]3C[C@H](OC)[C@H](O[C@@H]4C[C@H](OC)[C@@H](O)[C@H](C)O4)[C@H](C)O3)[C@@H](C)/C=C/C=C3\CO[C@@H]4[C@H](O)C(C)=C[C@@H](C(=O)O1)[C@]34O)O2	class 1

Task item: Tell me the recorded outcome of this test for COC(=O)C1C2CC3c4[nH]c5cc(OC)ccc5c4CCN3CC2CC(OC)C1OC (stereo not drawn) .
Reply: class 0

Task item: Tell me the recorded outcome of this test for CCCCC(=O)O[C@]1(C(=O)CO)CCC2C3CCC4=CC(=O)CCC4(C)C3C(O)CC21C (stereo partly drawn) .
Reply: class 0

Task item: Tell me the recorded outcome of this test for CO[C@H]1OC2O[C@@]3(C)CC[C@H]4[C@H](C)CC[C@@H]([C@H]1C)[C@@]24OO3 (stereo partly drawn) .
Reply: class 1

Task item: Tell me the recorded outcome of this test for CC1(Cn2ccnn2)[C@H](C(=O)O)N2C(=O)C[C@H]2S1(=O)=O (stereo partly drawn) .
Reply: class 0

Task item: Tell me the recorded outcome of this test for COC(c1ccccc1)(c1ccccc1)C(Oc1nc(C)cc(C)n1)C(=O)O (stereo not drawn) .
Reply: class 0
